tested_system: Hepatic sodium/bile acid cotransporter (Homo sapiens, UniProt Q14973)
Sequence (Q14973 whole entry): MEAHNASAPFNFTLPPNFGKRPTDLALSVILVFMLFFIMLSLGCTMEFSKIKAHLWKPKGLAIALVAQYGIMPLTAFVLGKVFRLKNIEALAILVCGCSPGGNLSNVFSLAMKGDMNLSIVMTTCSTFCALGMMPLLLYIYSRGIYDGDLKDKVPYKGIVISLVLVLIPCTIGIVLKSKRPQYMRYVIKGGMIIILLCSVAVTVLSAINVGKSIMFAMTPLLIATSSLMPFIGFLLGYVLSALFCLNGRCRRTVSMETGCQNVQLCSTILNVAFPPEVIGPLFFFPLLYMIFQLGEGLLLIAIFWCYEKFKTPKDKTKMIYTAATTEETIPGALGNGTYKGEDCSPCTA
experiment_description: Inhibition of TAMRA-labeled preS1-peptide binding to human NTCP in HepG2-hNTCP cells incubated for 30 mins by […]
Type: cell-based
assay_endpoint: IC50 (µM)

compound: Cc1c(OCC(=O)NC(CSCc2ccccc2)C(=O)O)ccc2c3c(c(=O)oc12)CCCC3 (centres undefined)
assay_endpoint: IC50
measured_value: 123
//
compound: Cc1c(Cc2ccccc2)c(=O)oc2cc(OCC(=O)NC(CSCc3ccccc3)C(=O)O)ccc12 (centres undefined)
assay_endpoint: IC50
measured_value: 150
//
compound: CCCCCCc1c(C)c2ccc(OCC(=O)NC(Cc3ccccc3)C(=O)O)cc2oc1=O (centres undefined)
assay_endpoint: IC50
measured_value: 145
//
compound: CCCCCCc1cc2ccc(OCC(=O)NC(CCSC)C(=O)O)cc2oc1=O (centres undefined)
assay_endpoint: IC50
measured_value: 238
